- TESTED_TARGET: S1P1/EDG1 (Homo sapiens, UniProt P21453)
- Sequence (P21453 whole entry): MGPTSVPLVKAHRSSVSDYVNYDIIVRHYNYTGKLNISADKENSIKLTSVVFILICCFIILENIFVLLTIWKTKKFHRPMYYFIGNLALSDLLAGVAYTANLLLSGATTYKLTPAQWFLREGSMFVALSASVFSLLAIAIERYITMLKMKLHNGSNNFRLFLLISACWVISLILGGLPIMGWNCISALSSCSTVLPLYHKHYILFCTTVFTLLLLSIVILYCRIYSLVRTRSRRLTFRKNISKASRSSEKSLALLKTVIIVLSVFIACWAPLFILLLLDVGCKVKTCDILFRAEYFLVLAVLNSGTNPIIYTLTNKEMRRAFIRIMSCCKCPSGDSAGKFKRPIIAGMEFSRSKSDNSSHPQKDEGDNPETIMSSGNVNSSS
- METHOD_SUMMARY: S1P1 CRE-bla CHOK1 reporter assay, inhibition of Forskolin induced cAMP
- Type: cell-based
- ASSAY_CONDITIONS: agonist activity range, S1P1 CRE-bla CHOK1, 2 μM Forskolin; read-out: S1P1 ACTIVITY
pEC50: −log10 of the molar value.
READOUT_KIND: pEC50

[[record]]
compound = "CCOc1ccc(-c2nc(-c3cccc4c3CC[C@H]4N)no2)cc1C#N [Compound 94]"
meas_value = "8.30 to 9.30"

[[record]]
compound = "CC(C)Oc1ccc(-c2nc(-c3cccc4c3CC[C@H]4NCC(=O)N3CCC3)no2)cc1C#N [Compound 128]"
meas_value = "9.30 to 10.30"

[[record]]
compound = "CC(C)Oc1ccc(-c2nc(-c3cccc4c3CC[C@H]4N)no2)cc1S(C)(=O)=O [Compound 252]"
meas_value = "8.30 to 9.30"

[[record]]
compound = "CC(C)Oc1ccc(-c2nc(-c3cccc4c3CC[C@H]4NCC(=O)N3CCN(C)CC3)no2)cc1C#N [Compound 132]"
meas_value = "8.30 to 9.30"

[[record]]
compound = "CC(C)Oc1ccc(-c2nc(-c3cccc4c3CCC4N3CC[C@@H](N)C3)no2)cc1C#N (mixture of isomers) [Compound 31]"
meas_value = "< 8.30"

[[record]]
compound = "CC(C)Oc1ccc(-c2nc(-c3cccc4c3CC[C@@H]4NCCCCC(=O)O)no2)cc1C#N [Compound 148]"
meas_value = "> 10.30"

[[record]]
compound = "COCCS(=O)(=O)N[C@@H]1CCc2c(-c3noc(-c4ccc(OC(C)C)c(C#N)c4)n3)cccc21 [Compound 163]"
meas_value = "9.30 to 10.30"

[[record]]
compound = "CCOc1ccc(-c2nc(-c3cccc4c3CC[C@H]4O)no2)cc1OCC [Compound 1]"
meas_value = "9.30 to 10.30"

[[record]]
compound = "CC(C)CS(=O)(=O)N[C@@H]1CCc2c(-c3noc(-c4ccc(OC(C)C)c(C#N)c4)n3)cccc21 [Compound 76]"
meas_value = "8.30 to 9.30"

[[record]]
compound = "CC(C)Oc1ccc(-c2nc(-c3cccc4c3CC[C@H]4NS(=O)(=O)CCN3CCOCC3)no2)cc1C#N [Compound 176]"
meas_value = "8.30 to 9.30"

[[record]]
compound = "CC(C)COc1ccc(-c2nc(-c3cccc4c3CCC4NCCO)no2)cc1C#N (racemic) [Compound 103]"
meas_value = "8.30 to 9.30"


----------
- TESTED_TARGET: S1P2 (Homo sapiens, UniProt O95136)
- Sequence (O95136 whole entry, species assumed): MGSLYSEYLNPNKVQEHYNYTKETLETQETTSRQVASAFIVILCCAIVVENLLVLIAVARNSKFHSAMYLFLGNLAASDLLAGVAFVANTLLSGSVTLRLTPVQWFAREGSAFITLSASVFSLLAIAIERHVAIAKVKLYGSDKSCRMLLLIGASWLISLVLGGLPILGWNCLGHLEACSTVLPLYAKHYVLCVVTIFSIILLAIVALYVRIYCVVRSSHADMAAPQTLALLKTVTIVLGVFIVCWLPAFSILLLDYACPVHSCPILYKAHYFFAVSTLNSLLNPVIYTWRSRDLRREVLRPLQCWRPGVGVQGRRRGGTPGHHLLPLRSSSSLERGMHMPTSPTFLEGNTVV
- METHOD_SUMMARY: Specificity over other S1P receptors: S1P2 CRE-bla CHOK1 reporter assay
- ASSAY_CONDITIONS: S1P2 CRE-bla CHOK1, without Forskolin; read-out: S1P2 agonist value (EC50)
pEC50: −log10 of the molar value.
# Lookup of reported pEC50 keyed by entry
READOUT_KIND: pEC50

[[record]]
molecule = "CC(C)Oc1ccc(-c2nc(-c3cccc4c3CC[C@@H]4NCC(=O)N(C)C)no2)cc1C#N"
readout_kind = "pEC50"
modifier = "<"
meas_value = 5.00

[[record]]
molecule = "CCOc1ccc(-c2nc(-c3cccc4c3CCC4O)no2)cc1OCC (racemic) [Compound 254, reference compound]"
readout_kind = "pEC50"
modifier = "="
meas_value = 5.26

[[record]]
molecule = "CC(C)Oc1ccc(-c2nc(-c3cccc4c3CC[C@@H]4NCCO)no2)cc1C#N"
readout_kind = "pEC50"
modifier = "="
meas_value = 5.02

[[record]]
molecule = "CC(C)Oc1ccc(-c2nc(-c3cccc4c3CC[C@@H]4NS(=O)(=O)CCO)no2)cc1C#N"
readout_kind = "pEC50"
modifier = "<"
meas_value = 5.00

[[record]]
molecule = "CC(C)Oc1ccc(-c2nc(-c3cccc4c3CC[C@H]4NCCO)no2)cc1C#N"
readout_kind = "pEC50"
modifier = "="
meas_value = 5.24

[[record]]
molecule = "CC(C)Oc1ccc(-c2nc(-c3cccc4c3CC[C@@H]4NC(=O)N3CC(O)C3)no2)cc1C#N"
readout_kind = "pEC50"
modifier = "<"
meas_value = 5.00

[[record]]
molecule = "CC(C)Oc1ccc(-c2nc(-c3cccc4c3CC[C@H]4NC(=O)N3CC(O)C3)no2)cc1C#N"
readout_kind = "pEC50"
modifier = "<"
meas_value = 5.00

[[record]]
molecule = "CC(C)Oc1ccc(-c2nc(-c3cccc4c3CC[C@@H]4N)no2)cc1C#N"
readout_kind = "pEC50"
modifier = "="
meas_value = 5.11


----------
Parameter pEC50: see the listing below.
- TESTED_TARGET: S1P1/EDG1 (Homo sapiens, UniProt P21453)
- METHOD_SUMMARY: S1P1 CRE-bla CHOK1 reporter assay, inhibition of Forskolin induced cAMP
- Format: cell-based
- ASSAY_CONDITIONS: agonist activity range, S1P1 CRE-bla CHOK1, 2 μM Forskolin; read-out: S1P1 ACTIVITY
pEC50: −log10 of the molar value.
READOUT_KIND: pEC50

[[record]]
compound = "CC(C)Oc1ccc(-c2nc(-c3cccc4c3CC[C@H]4NS(=O)(=O)CCN3CCCCC3)no2)cc1C#N"
meas_value = "8.30 to 9.30"

[[record]]
compound = "CC(C)Oc1ccc(-c2nc(-c3cccc4c3CC[C@H]4N[C@H](C)c3ccccc3)no2)cc1C#N"
meas_value = "< 8.30"

[[record]]
compound = "CC(C)Oc1ccc(-c2nc(-c3cccc4c3CC[C@H]4NS(=O)(=O)C3CC3)no2)cc1C#N"
meas_value = "9.30 to 10.30"

[[record]]
compound = "CCOc1ccc(-c2nc(-c3cccc4c3CC[C@@H]4O)no2)cc1C#N"
meas_value = "9.30 to 10.30"

[[record]]
compound = "CC(C)Oc1ccc(-c2nc(-c3cccc4c3CC[C@H]4N(CCO)S(=O)(=O)c3ccccc3)no2)cc1C#N"
meas_value = "< 8.30"

[[record]]
compound = "COC(=O)C1CCN(C(=O)N[C@H]2CCc3c(-c4noc(-c5ccc(OC(C)C)c(C#N)c5)n4)cccc32)CC1"
meas_value = "9.30 to 10.30"

[[record]]
compound = "CC(C)Oc1ccc(-c2nc(-c3cccc4c3CC[C@@H]4NC(=O)N3CC(O)C3)no2)cc1C#N"
meas_value = "9.30 to 10.30"

[[record]]
compound = "CC(C)Oc1ccc(-c2nc(-c3cccc4c3CC[C@@H]4NC(=O)CN(C)C)no2)cc1C#N"
meas_value = "9.30 to 10.30"

[[record]]
compound = "CC(C)Oc1ccc(-c2nc(-c3cccc4c3CCC4NC[C@H](C)O)no2)cc1C#N (mixture of isomers)"
meas_value = "9.30 to 10.30"

[[record]]
compound = "CC(C)Oc1ccc(-c2nc(-c3cccc4c3CC[C@H]4NC(=O)N3CC[C@H](N(C)C)C3)no2)cc1C#N"
meas_value = "8.30 to 9.30"


----------
- TESTED_TARGET: S1P1/EDG1 (Homo sapiens, UniProt P21453)
- METHOD_SUMMARY: S1P1 CRE-bla CHOK1 reporter assay, inhibition of Forskolin induced cAMP
- Format: cell-based
- ASSAY_CONDITIONS: agonist activity range, S1P1 CRE-bla CHOK1, 2 μM Forskolin; read-out: S1P1 ACTIVITY
pEC50: −log10 of the molar value.
READOUT_KIND: pEC50

[[record]]
compound = "CC(C)Oc1ccc(-c2nc(-c3cccc4c3CCC4N3CCN(CCO)CC3)no2)cc1C#N (racemic) [Compound 24]"
readout_kind = "pEC50"
meas_value = "9.30 to 10.30"

[[record]]
compound = "CC(C)Oc1ccc(-c2nc(-c3cccc4c3CCC4NCCN3CCCC3)no2)cc1C#N (racemic) [Compound 26]"
readout_kind = "pEC50"
meas_value = "8.30 to 9.30"

[[record]]
compound = "CC(C)Oc1ccc(-c2nc(-c3cccc4c3CC[C@H]4OC(=O)C(C)(C)C)no2)cc1C#N [Compound 14]"
readout_kind = "pEC50"
meas_value = "< 8.30"


----------
- TESTED_TARGET: S1P1/EDG1 (Homo sapiens, UniProt P21453)
- METHOD_SUMMARY: S1P1 CRE-bla CHOK1 reporter assay, inhibition of Forskolin induced cAMP
- Type: cell-based
- ASSAY_CONDITIONS: agonist activity range, S1P1 CRE-bla CHOK1, 2 μM Forskolin; read-out: S1P1 ACTIVITY
pEC50: −log10 of the molar value.
Listing of entries alongside the reported pEC50.
READOUT_KIND: pEC50

[[record]]
compound = "CC(C)Oc1ccc(-c2nc(-c3cccc4c3CCC4NC3CCCCC3)no2)cc1C#N (racemic) [Compound 22]"
readout_kind = "pEC50"
meas_value = "< 8.30"

[[record]]
compound = "CC(C)Oc1ccc(-c2nc(-c3cccc4c3CC[C@@H]4NS(=O)(=O)CCN(C)C)no2)cc1C#N [Compound 78]"
readout_kind = "pEC50"
meas_value = "8.30 to 9.30"

[[record]]
compound = "CC(C)Oc1ccc(-c2nc(-c3cccc4c3CC[C@@H]4NC(=O)N3CCC(C(=O)O)CC3)no2)cc1C#N [Compound 239]"
readout_kind = "pEC50"
meas_value = "9.30 to 10.30"

[[record]]
compound = "CC(C)Oc1ccc(-c2nc(-c3cccc4c3CC[C@H]4N(CCO)CCO)no2)cc1C#N [Compound 118]"
readout_kind = "pEC50"
meas_value = "9.30 to 10.30"

[[record]]
compound = "CC(=O)OCCNC1CCc2c(-c3noc(-c4ccc(OC(C)C)c(C#N)c4)n3)cccc21 (racemic) [Compound 37]"
readout_kind = "pEC50"
meas_value = "9.30 to 10.30"

[[record]]
compound = "CC(C)Oc1ccc(-c2nc(-c3cccc4c3CC[C@@H]4NC(=O)N3CCC(O)CC3)no2)cc1C#N [Compound 241]"
readout_kind = "pEC50"
meas_value = "9.30 to 10.30"

[[record]]
compound = "CC(C)Oc1ccc(-c2nc(-c3cccc4c3CC[C@H]4NC(=O)CN3CCCC3)no2)cc1C#N [Compound 68]"
readout_kind = "pEC50"
meas_value = "8.30 to 9.30"

[[record]]
compound = "CC(C)Oc1ccc(-c2nc(-c3cccc4c3CC[C@@H]4O)no2)cc1C#N [Compound 6]"
readout_kind = "pEC50"
meas_value = "> 10.30"

[[record]]
compound = "CC(C)Oc1ccc(-c2nc(-c3cccc4c3CC[C@H]4N)no2)cc1 [Compound 96]"
readout_kind = "pEC50"
meas_value = "< 8.30"

[[record]]
compound = "CC(C)Oc1ccc(-c2nc(-c3cccc4c3CC[C@@H]4N3CC(C(=O)O)C3)no2)cc1C#N [Compound 203]"
readout_kind = "pEC50"
meas_value = "9.30 to 10.30"

[[record]]
compound = "CC(C)Oc1ccc(-c2nc(-c3cccc4c3CCC4N3CCNCC3)no2)cc1C#N (racemic) [Compound 47]"
readout_kind = "pEC50"
meas_value = "9.30 to 10.30"

[[record]]
compound = "CC(C)Oc1ccc(-c2nc(-c3cccc4c3CC[C@H]4NC(=O)N3CCOCC3)no2)cc1C#N [Compound 211]"
readout_kind = "pEC50"
meas_value = "9.30 to 10.30"

[[record]]
compound = "CN[C@@H]1CCc2c(-c3noc(-c4ccc(OC(C)C)c(C#N)c4)n3)cccc21 [Compound 143]"
readout_kind = "pEC50"
meas_value = "9.30 to 10.30"

[[record]]
compound = "CC(C)Oc1ccc(-c2nc(-c3cccc4c3CC[C@H]4NCCC(=O)O)no2)cc1C#N [Compound 62]"
readout_kind = "pEC50"
meas_value = "> 10.30"

[[record]]
compound = "CC(C)Oc1ccc(-c2nc(-c3cccc4c3CC[C@H]4NCC(=O)N3CCCC3)no2)cc1C#N [Compound 129]"
readout_kind = "pEC50"
meas_value = "9.30 to 10.30"

[[record]]
compound = "CC(C)Oc1ccc(-c2nc(-c3cccc4c3CC[C@H]4NS(=O)(=O)CCO)no2)cc1C#N [Compound 186]"
readout_kind = "pEC50"
meas_value = "9.30 to 10.30"

[[record]]
compound = "CC(C)Oc1ccc(-c2nc(-c3cccc4c3CCC4N[C@@H](C)c3ccccc3)no2)cc1C#N (stereo in doubt) [Compound 123]"
readout_kind = "pEC50"
meas_value = "< 8.30"

[[record]]
compound = "CC(C)Oc1ccc(-c2nc(-c3cccc4c3CC[C@H]4NCC(=O)O)no2)cc1C#N [Compound 61]"
readout_kind = "pEC50"
meas_value = "> 10.30"

[[record]]
compound = "CC(C)Oc1ccc(-c2nc(-c3cccc4c3CC[C@H]4NCC(=O)N3CC[C@H](O)C3)no2)cc1C#N [Compound 134]"
readout_kind = "pEC50"
meas_value = "9.30 to 10.30"

[[record]]
compound = "CC(C)Oc1ccc(-c2nc(-c3cccc4c3CC[C@H]4NC(=O)N3CC[C@H](N)C3)no2)cc1C#N [Compound 222]"
readout_kind = "pEC50"
meas_value = "8.30 to 9.30"

